test system: NCI-H23 lung; assay: NCI tumour cell line growth inhibition, 48 h
Quick reference: TGI of the listed items.

Use the examples below as a reference point.
>>> print(df.to_string())
                                   compound  attribute_measured  measured_value
0  Nc1ccn(CCOC(c2ccccc2)P(=O)(O)O)c(=O)n1 (centres undefined)                 TGI        > 100 µM
1  O=C(O)c1ccccc1/C=C1/Cc2ccc3c(c2C1=O)CCC3                 TGI           96 µM
2  CC(=O)OC12CC[N+]3(C)CCCCC3C1=Nc1ccccc12 (centres undefined)                 TGI        > 100 µM
3  CC(C)(C)OC(=O)NCCC1CNc2ccccc21 (centres undefined)                 TGI        > 100 µM
4  CC(=O)C1C(=O)C(C(C)=O)C2C3C=CC(C3)C12 (centres undefined)                 TGI        > 100 µM
5            C=CCOc1ccc(N)c([N+](=O)[O-])c1                 TGI        > 100 µM

Quick one: TGI for C/C(=C\C(C[C@](C)(O)C(O)CCC#C[Si](C)(C)C)S(=O)(=O)c1ccccc1)CC/C=C/CO[Si](C)(C)C(C)(C)C (some centres undefined) ?
41.9 µM

Query O=C(Nc1n[nH]c2nc(-c3ccc(O)cc3)c(Br)cc12)C1CC1 next
16.8 µM

Query O=C1OC(c2ccc(Cl)cc2)=N/C1=C\c1ccccc1 next
> 100 µM

Query CS(=O)(=O)NNS(=O)(=O)c1ccc(F)cc1 next
> 100 µM

Query CN(C)c1ccc(C2CC(=O)CC(c3ccc(N(C)C)cc3)C23C(=O)NC(=S)NC3=O)cc1 (centres undefined) next
> 100 µM

Query OCC(O)COCn1cc(Cn2ncc3c(NCc4ccccc4)ncnc32)nn1 (centres undefined) next
> 100 µM

Query Nc1nc(SCCNC(=O)CCc2ccc(O)c(I)c2)nc2c1ncn2C1OC(CO)C(O)C1O (centres undefined) next
> 100 µM

Query O=S(=O)(O)c1cc(S(=O)(=O)O)c2c(N=Nc3ccc(S(=O)(=O)O)c4ccccc34)c(O)ccc2c1 next
> 100 µM

###

tested on: CAKI-1 renal; assay: NCI tumour cell line growth inhibition, 48 h; in the data active = GI50 below about 0.43 µM; inactive = the rest
Please answer using one outcome listed in 1 = active, -1 = inactive

                                   compound  cat
0  CCCCC(OC(=O)c1ccc(N)cc1)C(=O)Nc1nc(CC(=O)OCC)cs1 (stereo unspecified)   -1
1  C1C[OH+]CCNCC[OH+]CC[OH+]CCN1.N.[Cl-].[Pt+4]   -1
2  CC(=O)[CH-]C(C)=O.CC(=O)[CH-]C(C)=O.[Cl-].[O]=[V]   -1
3  O=C(c1ccc2ccccc2c1)c1c(C(F)(F)F)n([O-])c2cc(C(F)(F)F)ccc2[n+]1=O   -1

What was the test verdict on CCOC(=O)c1c2c(n3ccc(NC(=O)CCN4CCCCC4)cc13)C(=O)c1ncccc1C2=O ?
1

Query CCCS(=O)(=O)Nc1cccc(Nc2ncnc3cc(NC(=O)CCl)ccc23)c1Cl next
-1

###

test system: NCI-H23 lung; assay: NCI tumour cell line growth inhibition, 48 h
attribute_measured: TGI (µM)
Report the figure in µM without appending any unit label.

Use the examples below as a reference point.
>>> print(df.to_string())
                                   compound  attribute_measured  unit_annotation  measured_value
0  CCCCc1n(Cc2ccc3ccccc3n2)cc[n+]1Cc1ccc2ccccc2n1                 TGI               µM            8.54
1  O=C1c2ccccc2C(=O)c2c1oc1c2c(=O)[nH]c2ccc(Cl)cc21                 TGI               µM            1.83
2  CCOc1cc(C2SCC(=O)N2c2ccc3c(c2)Oc2c(Cl)c4c(c(Cl)c2=N3)Oc2cc(N3C(=O)CSC3c3ccc(O)c(OCC)c3)ccc2N=4)ccc1O (centres undefined)                 TGI               µM            47.6

Quick one: TGI for CCCCCCCC(=O)OC[C@H](C[As](=O)(O)O)OC(=O)CCCCCCC ?
28.2

###

test system: PC-3 prostate; assay: NCI tumour cell line growth inhibition, 48 h
attribute_measured: TGI

Use the examples below as a reference point.
molecule	tgt	TGI
CSc1nc(-c2ccccc2)nc(C(C#N)C#N)n1	PC-3 prostate	> 100 µM
CC[C@]12C=CCN3CC[C@@]4(c5ccc(OC)cc5N(C)[C@H]4[C@@](O)(C(=O)OC)[C@@H]1OC(=O)CCC(=O)O[C@H]1CC[C@H]4[C@@H]5CC[C@H]6CC(=O)CC[C@]6(C)[C@H]5CC[C@]14C)[C@@H]32	PC-3 prostate	> 100 µM
COC(=O)[C@@H]1C[C@]2(Br)c3ccccc3N(S(=O)(=O)c3ccccc3)[C@@H]2N1C(=O)OC	PC-3 prostate	> 100 µM
CCN(CCO)CCCC(C)Nc1ccnc2cc(Cl)ccc12 (stereo unspecified)	PC-3 prostate	> 100 µM
CCc1[nH]nc(C(N)=O)c1N=NN(C)C	PC-3 prostate	> 100 µM
O=S(=O)(O)n1ccnc1 (tested in a mixture with another compound)	PC-3 prostate	> 100 µM
O=C(c1ccccc1)C1OC1C(=O)c1ccccc1 (stereo unspecified)	PC-3 prostate	25.7 µM
CCOP(=O)(Nc1ccc(-c2ccc(N)cc2)cc1)OCC	PC-3 prostate	> 100 µM
Cc1cn(C2CC(N=[N+]=[N-])C(CO)O2)c(=O)n(CCCCBr)c1=O (stereo unspecified)	PC-3 prostate	> 100 µM
O=C(Nc1cccc(C(F)(F)F)c1)c1ccc(NC2=C(Cl)C(=O)N(Cc3ccccc3)C2=O)cc1	PC-3 prostate	27 µM

# input for lookup
Lab note: need TGI for O=C1c2cc3c(cc2-c2c1c1ccc(F)cc1c(=O)n2C[C@H](O)[C@H](O)[C@H](O)CO)OCO3 on PC-3 prostate, anyone have it?
14.9 µM

###

test system: SNB-19 CNS; assay: NCI tumour cell line growth inhibition, 48 h; in the data active = GI50 below about 0.43 µM; inactive = the rest
Please answer using one outcome listed in true = active, false = inactive

Illustrative cases are given below, each with its answer.
>>> df
                                   molecule         tgt    cat
0  Cc1nc2ccccc2c(/C=C/c2ccccc2)c1C(=O)/C=C/c1ccc(C(F)(F)F)cc1  SNB-19 CNS  false
1  CC[C@H]1CCC/C=C/[C@@H]2C[C@H](O)C[C@H]2[C@H](O)/C=C/C(=O)O1  SNB-19 CNS   true
2    C#Cc1cccc(NC(=O)c2cccc(NC(=O)CCl)c2)c1  SNB-19 CNS  false

Now turn to the next molecule.
What was the test verdict on Fc1ccc(-c2ncn(CCCN3CCOCC3)c2-c2ccncc2)cc1 ?
false

###

Quick reference: TGI of the listed items.
system: KM12 colon; experiment: NCI tumour cell line growth inhibition, 48 h

Use the examples below as a reference point.
>>> df
                                   compound  attribute_measured  measured_value
0  Cc1cc(=O)oc2cc3oc(N(C)c4ccccc4)nc(=O)c3cc12                 TGI        > 100 µM
1                  O=C(C=Nc1ccccc1S)c1ccco1                 TGI         31.3 µM
2  COc1ccc(C2CC(c3ccc(OC)cc3O)=NN2c2ccc(S(N)(=O)=O)cc2)cc1 (stereo unspecified)                 TGI        > 100 µM

Quick one: TGI for C=CCn1c(=O)c(Br)nn(CCOCP(=O)(OCC)OCC)c1=O ?
> 100 µM

Query CCCCC(=O)c1c(O)ccc2c(C)cc(=O)oc12 next
> 100 µM

Query O=C(CCCC(=O)N/N=C/c1cc(Cl)ccc1O)N/N=C\c1cc(Cl)ccc1O next
> 100 µM

Query CC1=C[C@H]([C@H]2C=C(C)C(C(N)=O)=CN2Cc2c(Cl)cccc2Cl)N(Cc2c(Cl)cccc2Cl)C=C1C(N)=O next
> 75 µM

###

Quick reference: TGI of the listed items.
test system: DMS 114 small cell lung; test: NCI tumour cell line growth inhibition, 48 h

>>> df
                                   compound  attribute_measured  measured_value
0  CC1OC(CC(=O)O)Cc2c1c(O)c1c(O)cc(-c3cc(=O)c4c(=O)c5c(c(=O)c=4c3=O)CC(CC(=O)O)OC5C)c(O)c1c2O (centres undefined)                 TGI           40 µM
1       Brc1ccc(C=NC23CC4CC(CC(C4)C2)C3)cc1                 TGI        > 100 µM
2  COc1ccccc1NC(=O)CC(=O)n1nc(C)c(N=Nc2ccccc2Cl)c1C                 TGI        > 100 µM
3  COc1cccc(C=O)c1[O-].COc1cccc(C=O)c1[O-].[Zn+2]                 TGI        > 100 µM
4         CNS(=O)(=O)NNS(=O)(=O)c1ccc(F)cc1                 TGI        > 100 µM
5  CC(=O)OC1=C2CC[C@@H]3C(CC[C@@]4(C)C3CC[C@@H]4OC(C)=O)[C@@]2(C)CC(C#N)C1=O (some centres undefined)                 TGI         37.1 µM

Quick one: TGI for Cc1[nH]c2ccccc2c1C1=NO/C(=N\O)C(c2c(C)[nH]c3ccccc23)C1 (centres undefined) ?
> 100 µM

Query Nc1ccn(CCOC(c2ccccc2)P(=O)(O)O)c(=O)n1 (centres undefined) next
> 100 µM

Query COc1ccc(C[C@]23CCC(=O)N2CCc2cc(OC)c(O)cc23)cc1O next
> 100 µM

Query CO/C=C(\Br)c1ccc2c(c1)OCO2 next
> 100 µM
